# Test system: red blood cells
# method-notes: Hemolytic activity on red blood cells
# Type: cell-based, mouse
Non-standard residues stand in square brackets, D forms with d. Residues, ends and D or L forms follow the SMILES beside them. Nspe = C[C@H](NCC(=O)O)c1ccccc1; Nphe = O=C(O)CNCc1ccccc1; Nlys = NCCCCNCC(=O)O
parameter: HD10
// return a plain number; no unit text

Reference set, count: 5
Enquiry: Look up HD10 of C[C@@H](c1ccccc1)N(CC(N)=O)C(=O)CN(C(=O)CN(CCCCN)C(=O)CN(Cc1ccccc1)C(=O)CN(Cc1ccccc1)C(=O)CN(CCCCN)C(=O)CN(Cc1ccccc1)C(=O)CN(Cc1ccccc1)C(=O)CN(CCCCN)C(=O)CN(C(=O)CN(C(=O)CNCCCCN)[C@@H](C)c1ccccc1)[C@@H](C)c1ccccc1)[C@@H](C)c1ccccc1 and report it.
Return: 61.6

Enquiry: Look up HD10 of C[C@@H](c1ccccc1)N(CC(N)=O)C(=O)CN(C(=O)CN(CCCCN)C(=O)CN(Cc1ccccc1)C(=O)CN(Cc1ccccc1)C(=O)CN(CCCCN)C(=O)CN(Cc1ccccc1)C(=O)CN(Cc1ccccc1)C(=O)CN(CCCCN)C(=O)CN(Cc1ccccc1)C(=O)CN(C(=O)CNCCCCN)[C@@H](C)c1ccccc1)[C@@H](C)c1ccccc1 and report it.
Return: 53.9

Enquiry: Look up HD10 of C[C@@H](c1ccccc1)N(CC(=O)N(CC(N)=O)Cc1ccccc1)C(=O)CN(CCCCN)C(=O)CN(Cc1ccccc1)C(=O)CN(Cc1ccccc1)C(=O)CN(CCCCN)C(=O)CN(Cc1ccccc1)C(=O)CN(Cc1ccccc1)C(=O)CN(CCCCN)C(=O)CN(Cc1ccccc1)C(=O)CN(Cc1ccccc1)C(=O)CNCCCCN [compound 9] (H-[Nlys][Nphe][Nphe][Nlys][Nphe][Nphe][Nlys][Nphe][Nphe][Nlys][Nspe][Nphe]-NH2) and report it.
Return: 54.4

Enquiry: Look up HD10 of C[C@@H](c1ccccc1)N(CC(N)=O)C(=O)CN(Cc1ccccc1)C(=O)CN(CCCCN)C(=O)CN(Cc1ccccc1)C(=O)CN(Cc1ccccc1)C(=O)CN(CCCCN)C(=O)CN(Cc1ccccc1)C(=O)CN(Cc1ccccc1)C(=O)CN(CCCCN)C(=O)CN(Cc1ccccc1)C(=O)CN(Cc1ccccc1)C(=O)CNCCCCN and report it.
Return: 103.3

Enquiry: Look up HD10 of C[C@@H](c1ccccc1)N(CC(=O)N(CCCCN)CC(=O)N(CC(=O)N(CC(N)=O)Cc1ccccc1)Cc1ccccc1)C(=O)CN(Cc1ccccc1)C(=O)CN(CCCCN)C(=O)CN(Cc1ccccc1)C(=O)CN(Cc1ccccc1)C(=O)CN(CCCCN)C(=O)CN(Cc1ccccc1)C(=O)CN(Cc1ccccc1)C(=O)CNCCCCN [compound 8] (H-[Nlys][Nphe][Nphe][Nlys][Nphe][Nphe][Nlys][Nphe][Nspe][Nlys][Nphe][Nphe]-NH2) and report it.
Return: 88.5

The record that follows has no HD10 shown yet.
Enquiry: Look up HD10 of C[C@@H](c1ccccc1)N(CC(N)=O)C(=O)CN(Cc1ccccc1)C(=O)CN(CCCCN)C(=O)CN(Cc1ccccc1)C(=O)CN(Cc1ccccc1)C(=O)CN(CCCCN)C(=O)CN(Cc1ccccc1)C(=O)CN(Cc1ccccc1)C(=O)CN(CCCCN)C(=O)CN(C(=O)CN(C(=O)CNCCCCN)[C@@H](C)c1ccccc1)[C@@H](C)c1ccccc1 and report it.
Return: 81.7
